# System: calcium ionophore-induced LTB4 production in human blood
# assay_comment: Inhibition of calcium ionophore-induced LTB4 production in human blood (HWB)
# Format: cell-based
# recorded_conditions: human whole blood diluted 1:4, 15 min preincubation at 37° C., ionophore 20 mcg/ml, 10 min; read-out: Inhibition of Calcium Ionophore-induced LTB4 Production in Human Blood (HWB) IC50
Counter-ions that a name gives are not always drawn.
Recorded IC50 values for a group of molecules are listed next.

molecule | IC50
CCN(CCCOc1ccc(Cc2ccsc2)cc1)CCC(=O)NS(=O)(=O)c1ccccc1 [Example 14, monohydrate] | 82 nM
CCN(CCCOc1ccc(Cc2ccsc2)cc1)CCC(=O)NS(C)(=O)=O [Example 15, monohydrochloride] | 230 nM
CN(CCCOc1ccc(Cc2ccsc2)cc1)CCC(=O)NS(=O)(=O)c1ccccc1 [Example 17, monohydrochloride] | 130 nM
CCN(CCCOc1ccc(Cc2cccs2)cc1)CCC(=O)NS(C)(=O)=O [Example 11, monohydrochloride] | 66 nM
CC(C)N(CCCOc1ccc(Cc2ccccc2)cc1)CCC(=O)NS(C)(=O)=O [Example 27] | 100 nM
CN(CCCOc1ccc(Cc2ccccc2)cc1)CCC(=O)NS(C)(=O)=O [Example 23] | 70 nM
CCN(CCCOc1ccc(Cc2ccccc2)cc1)CCC(=O)NS(C)(=O)=O [Example 28] | 180 nM
CC(C)N(CCCOc1ccc(Cc2cccs2)cc1)CCC(=O)NS(=O)(=O)c1ccccc1 [Example 13, monohydrochloride] | 40 nM
CN(CCCOc1ccc(Cc2cccs2)cc1)CCC(=O)NS(C)(=O)=O [Example 10] | 61 nM
CC(C)(C)N(CCCOc1ccc(Cc2ccccc2)cc1)CCC(=O)NS(C)(=O)=O [Example 25] | 110 nM

* * *

Recorded pIC50 values for a group of compounds are listed next.
# system_tested: recombinant human LTA4 hydrolase (rhLTAH) (Homo sapiens, UniProt P09960)
# Sequence (P09960 whole entry): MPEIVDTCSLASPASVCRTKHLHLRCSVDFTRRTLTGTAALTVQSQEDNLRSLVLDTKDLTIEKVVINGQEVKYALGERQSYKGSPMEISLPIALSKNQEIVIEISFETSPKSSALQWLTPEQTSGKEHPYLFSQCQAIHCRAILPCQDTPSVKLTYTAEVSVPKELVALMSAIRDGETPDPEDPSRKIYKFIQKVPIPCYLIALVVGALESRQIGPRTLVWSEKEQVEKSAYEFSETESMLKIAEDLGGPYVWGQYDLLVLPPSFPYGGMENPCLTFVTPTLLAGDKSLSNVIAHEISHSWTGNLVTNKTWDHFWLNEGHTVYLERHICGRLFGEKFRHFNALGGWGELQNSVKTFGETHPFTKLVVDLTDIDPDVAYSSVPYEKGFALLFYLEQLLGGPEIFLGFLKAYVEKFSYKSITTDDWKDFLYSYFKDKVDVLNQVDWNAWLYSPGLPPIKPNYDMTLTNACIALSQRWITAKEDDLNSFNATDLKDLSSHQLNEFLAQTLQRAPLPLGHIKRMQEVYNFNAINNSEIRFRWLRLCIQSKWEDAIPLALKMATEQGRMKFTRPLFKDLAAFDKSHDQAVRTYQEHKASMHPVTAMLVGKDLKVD
# assay_comment: Recombinant Human LTA Hydrolase Assay for LTA Hydrolase Inhibitor Activity
# recorded_conditions: 10 min preincubation with 250 ng enzyme, LTA4 substrate, room temperature, pH 7.4
pIC50: −log10 of the molar value. Where a name gives a salt, the structure may show the parent alone.

compound | value_prefix | pIC50
CN(CCCOc1ccc(Cc2ccccc2)cc1)CCC(=O)NS(=O)(=O)c1ccccc1 | = | 9.00
CC(C)N(CCCOc1ccc(Cc2cccs2)cc1)CCC(=O)NS(=O)(=O)c1ccccc1 [Example 13, monohydrochloride] | = | 8.64
CCN(CCCOc1ccc(Cc2cccs2)cc1)CCC(=O)NS(C)(=O)=O [Example 11, monohydrochloride] | = | 7.48
CCN(CCCOc1ccc(Cc2ccccc2)cc1)CCC(=O)NS(=O)(=O)c1ccccc1 | = | 7.10
CN(CCCOc1ccc(Cc2cccs2)cc1)CCC(=O)NS(=O)(=O)c1ccccc1 | > | 9.30
CC(C)N(CCCOc1ccc(Cc2cccs2)cc1)CCC(=O)NS(C)(=O)=O [Example 12, monohydrochloride] | = | 7.92
CC(C)N(CCCOc1ccc(Cc2ccccc2)cc1)CCC(=O)NS(C)(=O)=O [Example 27] | = | 7.33
CC(C)N(CCCOc1ccc(Cc2ccccc2)cc1)CCC(=O)NS(C)(=O)=O [Example 26] | = | 6.80
CCN(CCCOc1ccc(Cc2ccccc2)cc1)CCC(=O)NS(C)(=O)=O | = | 6.27
CN(CCCOc1ccc(Cc2ccsc2)cc1)CCC(=O)NS(=O)(=O)c1ccccc1 [Example 17, monohydrochloride] | = | 9.30
CC(C)N(CCCOc1ccc(Cc2ccsc2)cc1)CCC(=O)NS(C)(=O)=O | = | 6.35
CCN(CCCOc1ccc(Cc2ccsc2)cc1)CCC(=O)NS(=O)(=O)c1ccccc1 [Example 14, monohydrate] | = | 7.96
CN(CCCOc1ccc(Cc2ccccc2)cc1)CCC(=O)NS(C)(=O)=O | = | 8.89
CN(CCCOc1ccc(Cc2ccsc2)cc1)CCC(=O)NS(C)(=O)=O | = | 7.70
CC(C)(C)N(CCCOc1ccc(Cc2ccccc2)cc1)CCC(=O)NS(C)(=O)=O | = | 7.00
CC(C)N(CCCOc1ccc(Cc2ccsc2)cc1)CCC(=O)NS(=O)(=O)c1ccccc1 | = | 7.05
CS(=O)(=O)NC(=O)CCN(CCCOc1ccc(Cc2ccccc2)cc1)C1CC1 | = | 5.67
CN(CCCOc1ccc(Cc2cccs2)cc1)CCC(=O)NS(C)(=O)=O | = | 9.30

* * *

# Test system: LTB4 production by calcium ionophore stimulated mouse blood
# assay_comment: Murine ex vivo LTB4 inhibition (calcium ionophore stimulated mouse blood after oral dosing)
# Assay type: in vivo
# recorded_conditions: mouse, oral gavage, 10 mg/kg (* indicates 50 mg/kg), 1 hour after administration, ionophore A23187 20 mcg/ml; read-out: Murine Ex Vivo LTB4 Inhibition, % I LTB4 at 1 hour after administration
Counter-ions that a name gives are not always drawn.
The label depends only on inhibition at 10 mg/kg: Fulfilled if it is at least 80%, Not fulfilled if it is smaller.

compound | label_class
CC(C)(C)N(CCCOc1ccc(Cc2ccccc2)cc1)CCC(=O)NS(C)(=O)=O [Example 25] | Not fulfilled
CN(CCCOc1ccc(Cc2cccs2)cc1)CCC(=O)NS(=O)(=O)c1ccccc1 [Example 9] | Fulfilled
CCN(CCCOc1ccc(Cc2ccccc2)cc1)CCC(=O)NS(=O)(=O)c1ccccc1 [Example 29] | Not fulfilled
CN(CCCOc1ccc(Cc2cccs2)cc1)CCC(=O)NS(C)(=O)=O [Example 10] | Fulfilled
CC(C)N(CCCOc1ccc(Cc2cccs2)cc1)CCC(=O)NS(C)(=O)=O [Example 12, monohydrochloride] | Not fulfilled
CC(C)N(CCCOc1ccc(Cc2ccsc2)cc1)CCC(=O)NS(=O)(=O)c1ccccc1 [Example 21] | Not fulfilled
CCN(CCCOc1ccc(Cc2ccccc2)cc1)CCC(=O)NS(C)(=O)=O [Example 28] | Fulfilled
CC(C)N(CCCOc1ccc(Cc2ccsc2)cc1)CCC(=O)NS(C)(=O)=O [Example 16] | Fulfilled
CN(CCCOc1ccc(Cc2ccsc2)cc1)CCC(=O)NS(C)(=O)=O [Example 18] | Fulfilled
CN(CCCOc1ccc(Cc2ccccc2)cc1)CCC(=O)NS(C)(=O)=O [Example 23] | Fulfilled
CCN(CCCOc1ccc(Cc2cccs2)cc1)CCC(=O)NS(C)(=O)=O [Example 11, monohydrochloride] | Fulfilled
CN(CCCOc1ccc(Cc2ccsc2)cc1)CCC(=O)NS(=O)(=O)c1ccccc1 [Example 17, monohydrochloride] | Fulfilled
CCN(CCCOc1ccc(Cc2ccsc2)cc1)CCC(=O)NS(=O)(=O)c1ccccc1 [Example 14, monohydrate] | Fulfilled

* * *

# Test system: calcium ionophore-induced LTB4 production in human blood
# assay_comment: Inhibition of calcium ionophore-induced LTB4 production in human blood (HWB)
# Format: cell-based
# recorded_conditions: human whole blood diluted 1:4, 15 min preincubation at 37° C., ionophore 20 mcg/ml, 10 min; read-out: Inhibition of Calcium Ionophore-induced LTB4 Production in Human Blood (HWB) IC50
pIC50: −log10 of the molar value. Structures can show the parent of a compound that is named as a salt.

compound | pIC50
CC(C)N(CCCOc1ccc(Cc2ccsc2)cc1)CCC(=O)NS(=O)(=O)c1ccccc1 | 6.82
CN(CCCOc1ccc(Cc2cccs2)cc1)CCC(=O)NS(=O)(=O)c1ccccc1 | 7.10
CC(C)N(CCCOc1ccc(Cc2ccsc2)cc1)CCC(=O)NS(C)(=O)=O | 6.70
CN(CCCOc1ccc(Cc2ccsc2)cc1)CCC(=O)NS(C)(=O)=O | 6.72
CCN(CCCOc1ccc(Cc2ccccc2)cc1)CCC(=O)NS(=O)(=O)c1ccccc1 | 6.89
CS(=O)(=O)NC(=O)CCN(CCCOc1ccc(Cc2ccccc2)cc1)C1CC1 | 5.57
CC(C)N(CCCOc1ccc(Cc2ccccc2)cc1)CCC(=O)NS(C)(=O)=O [Example 26] | 6.66
CC(C)N(CCCOc1ccc(Cc2cccs2)cc1)CCC(=O)NS(C)(=O)=O [Example 12, monohydrochloride] | 7.10
